Target: Kappa-type opioid receptor (Homo sapiens, UniProt P41145); also: assay procedure not described here
Sequence (P41145 whole entry): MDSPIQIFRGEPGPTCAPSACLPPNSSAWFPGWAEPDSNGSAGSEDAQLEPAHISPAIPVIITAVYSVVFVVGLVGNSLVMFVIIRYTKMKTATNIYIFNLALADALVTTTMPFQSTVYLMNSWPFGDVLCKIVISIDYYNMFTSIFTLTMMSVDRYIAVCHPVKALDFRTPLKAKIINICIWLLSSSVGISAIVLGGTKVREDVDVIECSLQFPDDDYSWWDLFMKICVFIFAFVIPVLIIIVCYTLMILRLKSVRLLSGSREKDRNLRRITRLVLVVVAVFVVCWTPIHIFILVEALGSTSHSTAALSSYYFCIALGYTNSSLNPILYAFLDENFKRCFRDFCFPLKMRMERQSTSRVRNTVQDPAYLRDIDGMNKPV
# key: entry, value: AC50

Exercise: Give its AC50 value. Item: `Nc1nc(O)c2ncn(COC(CO)CO)c2n1`
Solution: > 30 µM

Exercise: AC50 for `CC(C)N(CCCCOCC(=O)NS(C)(=O)=O)c1cnc(-c2ccccc2)c(-c2ccccc2)n1` ?
Solution: 29 µM

Exercise: Please report the recorded AC50 for `CNCC[C@@H](Oc1ccccc1C)c1ccccc1` .
Solution: 1.8 µM

Exercise: Tell me the measured AC50 of `CO[C@@]1(NC(=O)Cc2cccs2)C(=O)N2C(C(=O)O)=C(COC(N)=O)CS[C@@H]21` , please.
Solution: > 30 µM

Exercise: Consider the compound `C#C[C@]1(O)CC[C@H]2[C@@H]3CCc4cc(OC)ccc4[C@H]3CC[C@@]21C` and give its measured AC50.
Solution: > 10 µM

Exercise: // query AC50 value for entry `OCCN1CCN(CC/C=C2/c3ccccc3Sc3ccc(Cl)cc32)CC1`
Solution: 1.94 µM

Exercise: Value lookup for AC50; key = `NC(=O)c1ncn([C@@H]2O[C@H](CO)[C@@H](O)[C@H]2O)n1`
Solution: > 10 µM

Exercise: Requested read-out: AC50. Entry: `C[C@]12CC[C@H](O)CC1=CC[C@@H]1[C@@H]2CC[C@]2(C)C(c3cccnc3)=CC[C@@H]12`
Solution: > 10 µM

----------
Target: Sodium-dependent dopamine transporter (Homo sapiens, UniProt Q01959); also: assay procedure not described here
Sequence (Q01959 whole entry): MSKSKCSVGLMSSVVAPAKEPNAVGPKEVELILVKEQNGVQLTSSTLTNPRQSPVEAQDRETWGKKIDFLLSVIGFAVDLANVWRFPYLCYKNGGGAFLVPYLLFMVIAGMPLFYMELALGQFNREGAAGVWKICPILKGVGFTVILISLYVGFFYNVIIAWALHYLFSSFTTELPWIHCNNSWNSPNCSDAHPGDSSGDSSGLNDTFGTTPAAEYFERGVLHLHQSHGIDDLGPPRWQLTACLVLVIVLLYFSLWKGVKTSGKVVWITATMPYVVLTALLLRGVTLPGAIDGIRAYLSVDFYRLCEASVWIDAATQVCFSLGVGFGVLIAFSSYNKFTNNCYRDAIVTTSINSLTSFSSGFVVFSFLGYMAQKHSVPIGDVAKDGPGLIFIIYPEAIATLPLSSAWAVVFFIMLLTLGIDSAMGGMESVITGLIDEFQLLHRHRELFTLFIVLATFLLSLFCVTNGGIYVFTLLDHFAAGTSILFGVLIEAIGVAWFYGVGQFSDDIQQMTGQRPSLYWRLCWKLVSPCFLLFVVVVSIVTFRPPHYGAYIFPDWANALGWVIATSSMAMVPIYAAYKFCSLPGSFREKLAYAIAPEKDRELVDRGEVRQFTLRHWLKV
recorded_metric: AC50

Sample records with AC50:
compound	AC50
COC1=C(OC)C(=O)C(CCCCCCCCCCO)=C(C)C1=O	> 10 µM
O=C1NC(=O)C(c2ccccc2)(c2ccccc2)N1	> 30 µM

Exercise: // map CC(C)CC(N(C)C)C1(c2ccc(Cl)cc2)CCC1 (centres undefined) to recorded AC50 (system: Sodium-dependent dopamine transporter (Homo sapiens, UniProt Q01959)); also: assay procedure not described here
Solution: 0.75 µM

Exercise: Query for Sodium-dependent dopamine transporter (Homo sapiens, UniProt Q01959): what AC50 does the record show for `O=C(CCCN1CCC(n2c(O)nc3ccccc32)CC1)c1ccc(F)cc1` ?
Solution: 11 µM

Exercise: Checklist item: AC50 tested on Sodium-dependent dopamine transporter (Homo sapiens, UniProt Q01959), entry CN(C)C(=O)Oc1cc(OC(=O)N(C)C)cc(C(O)CNC(C)(C)C)c1 (centres undefined) , value?; also: assay procedure not described here
Solution: > 30 µM

Exercise: What is its AC50 for Sodium-dependent dopamine transporter (Homo sapiens, UniProt Q01959)? Entry: `COc1ccc(Cc2nccc3cc(OC)c(OC)cc23)cc1OC`
Solution: > 30 µM

Exercise: API: value(readout=AC50, system=Sodium-dependent dopamine transporter (Homo sapiens, UniProt Q01959)) for record `COc1ccc(/C=C/C(=O)Nc2ccccc2C(=O)O)cc1OC`; also: assay procedure not described here
Solution: > 30 µM

Exercise: Return AC50 measured with Sodium-dependent dopamine transporter (Homo sapiens, UniProt Q01959) given this compound: `COC(=O)N[C@@H](C)CNc1nccc(-c2cn(C(C)C)nc2-c2cc(Cl)cc(NS(C)(=O)=O)c2F)n1`
Solution: > 30 µM

Exercise: Give the reported AC50 for `CC(=O)O[C@H]1C[C@@H]2CC[C@@H]3[C@H](CC[C@@]4(C)[C@H]3C[C@H]([N+]3(C)CCCCC3)[C@@H]4OC(C)=O)[C@@]2(C)C[C@@H]1[N+]1(C)CCCCC1` (system: Sodium-dependent dopamine transporter (Homo sapiens, UniProt Q01959)). Also: assay procedure not described here.
Solution: > 10 µM
